src = PubChem BioAssay (NCATS)

Experiment: qHTS of pediatric cancer cell lines to identify multiple opportunities for drug repurposing: Confirmatory screen for RD cells (AID 1347124);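 further: cells exposed to compound for 48 h before viability readout; nearly all actives have a fitted effect of over 65% in size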; further: potency means the concentration at half of the fitted maximal effect
Details: RD rhabdomyosarcoma cell viability; series mostly up to 45.9 µM
Results filed as inconclusive are left out. Active and inactive are the calls of the source. The call rests on the fitted dose curve; in most records, active means well fitted cell-killing curve with a large enough effect; inconclusive means small, poorly fitted or top-dose-only effect, or effect the other way; inactive means no such curve, though single readings can be large or run the other way.
readout_type: Potency

Some entries whose results are on file:
compound=COC(=O)C1=CCCN(C)C1 readout_type=Potency observed_value=inactive
compound=CN(C)C(=S)SSC(=S)N(C)C readout_type=Potency observed_value="16.5 µM (active)"
compound="ClC1=C(Cl)C2(Cl)C(CBr)CC1(Cl)C2(Cl)Cl (stereo unspecified)" readout_type=Potency observed_value=inactive
compound=CCCCCCCCCCCC[N+](C)(C)CCOc1ccccc1 readout_type=Potency observed_value="18.5 µM (active)"
compound=C[C@@H]1O[C@@H](O[C@@H]2C=C3CC[C@@H]4[C@H](CC[C@]5(C)[C@@H](c6ccc(=O)oc6)CC[C@]45O)[C@@]3(C)CC2)[C@H](O)[C@H](O)[C@H]1O readout_type=Potency observed_value="0.0033 µM (active)"

Then this compound:
[ask] Please supply the value of reported Potency for the item Cc1ccc([N+](=O)[O-])[c]2c1[O][Hg]2
[reply] 0.827 µM (active)

* * *

Experiment: Cell Viability - LYMP1-002 - Assay at 16 hr (AID 948)
Settings: LYMP1-002 lymphoblastoid cell viability; series mostly up to 92.2 µM
Records with an inconclusive call do not appear. The source made the active and inactive calls. The call rests on the fitted dose curve; in most records, active means well fitted cell-killing curve with a large enough effect; inconclusive means small, poorly fitted or top-dose-only effect; inactive means flat fitted curve, though single readings scatter.
Choose one outcome from this list and give only that: yes for active, no for inactive

[ask] Per the records of this test, what outcome belongs to CNC(=O)Oc1cccc2ccccc12 ?
[reply] no

[ask] Per the records of this test, what outcome belongs to Oc1c(Br)cc(Br)cc1Br ?
[reply] no

[ask] Per the records of this test, what outcome belongs to CN(C)C(=S)SSC(=S)N(C)C ?
[reply] yes

[ask] Per the records of this test, what outcome belongs to O=C(CCl)c1ccc(Cl)cc1Cl ?
[reply] yes

* * *

Details: Ebola virus entry assay, green fluorescence channel
Results with a measured potency or affinity are listed apart.
Provide the reported efficacy of each item.
Reply with just the number (in %).

[ask] Please supply the value of reported efficacy for the item Clc1ccc(CSC(Cn2ccnc2)c2ccc(Cl)cc2Cl)cc1 (stereo unspecified)
[reply] -183

[ask] Please supply the value of reported efficacy for the item COc1cc(CC(C)N)c(OC)cc1Br (stereo unspecified)
[reply] 80.6

[ask] Please supply the value of reported efficacy for the item CCCCC1(COC(=O)CCC(=O)O)C(=O)N(c2ccccc2)N(c2ccccc2)C1=O
[reply] -12.3

[ask] Please supply the value of reported efficacy for the item CN(C)CCn1nnnc1SCC1=C(C(=O)O)N2C(=O)[C@@H](NC(=O)Cc3csc(N)n3)[C@H]2SC1
[reply] 40.8

[ask] Please supply the value of reported efficacy for the item COc1cccc(CCc2ccccc2OCC(CN(C)C)OC(=O)CCC(=O)O)c1 (stereo unspecified)
[reply] 95.8

[ask] Please supply the value of reported efficacy for the item CN1CCN(C2Cc3ccccc3Sc3ccc(Cl)cc32)CC1 (stereo unspecified)
[reply] 95.7

* * *

Assay: Cell Viability - LYMP2-020 (AID 986);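 further: cells exposed to compound for 24 h at 37 °C; nearly all actives have a fitted effect of over 55% in size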
Details: series mostly up to 92.2 µM
Inconclusive results are not listed. Active and inactive are the calls of the source. Calls follow the shape of the dose curve; as a rule, active = well fitted cell-killing curve with a large enough effect; inconclusive = small, poorly fitted or top-dose-only effect; inactive = flat fitted curve, though single readings scatter.
Choose one outcome from this list and give only that: active, inactive

[ask] Per the records of this test, what outcome belongs to COP(=O)(OC)OC=C(Cl)Cl ?
[reply] inactive

[ask] Per the records of this test, what outcome belongs to CNC(=O)Oc1cccc2ccccc12 ?
[reply] inactive

[ask] Per the records of this test, what outcome belongs to Oc1ccc(Cl)cc1Cc1cc(Cl)ccc1O ?
[reply] active

[ask] Per the records of this test, what outcome belongs to Oc1ccc(Cl)cc1Sc1cc(Cl)ccc1O ?
[reply] active

* * *

Provide the reported efficacy of each item.
Settings: Ebola virus entry assay, green fluorescence channel
Measured potencies and affinities stand elsewhere.
Reply with just the number (in %).

[ask] Please supply the value of reported efficacy for the item Nc1ccn([C@H]2CC[C@@H](CO)O2)c(=O)n1
[reply] -13.2

[ask] Please supply the value of reported efficacy for the item CCOC(=O)C1=C[C@]2(CC)CCCN3CCc4c(n1c1ccccc41)[C@@H]32
[reply] -42.6

[ask] Please supply the value of reported efficacy for the item C(=C\c1ccccc1)/CN1CCN(C(c2ccccc2)c2ccccc2)CC1
[reply] 12.5

[ask] Please supply the value of reported efficacy for the item O=C(O)CCC(=O)Nc1ccc(S(=O)(=O)Nc2nccs2)cc1
[reply] -34.8

[ask] Please supply the value of reported efficacy for the item CCCCCC1Nc2cc(C(F)(F)F)c(S(N)(=O)=O)cc2S(=O)(=O)N1 (stereo unspecified)
[reply] -15.8

[ask] Please supply the value of reported efficacy for the item CO/N=C(\C(=O)O)c1csc(NC(=O)CCl)n1
[reply] 7.58

* * *

Assay: qHTS of pediatric cancer cell lines to identify multiple opportunities for drug repurposing: Primary screen for LAN-5 cells (AID 1347100)
Details: LAN-5 neuroblastoma viability, CellTiter-Glo luminescence, 48 h; series mostly up to 46 µM
Results filed as inconclusive are left out. Calls of active or inactive are those of the source. Calls come from the whole dose curve; as a rule, active = well fitted cell-killing curve with a large enough effect; inconclusive = small, poorly fitted or top-dose-only effect; inactive = no such curve, though single readings can be large or run the other way.
Choose one outcome from this list and give only that: active, inactive

[ask] Per the records of this test, what outcome belongs to COc1ccc(CN2CCNCC2)c(OC)c1OC ?
[reply] inactive

[ask] Per the records of this test, what outcome belongs to NC1(c2ccccc2)CCCCC1 ?
[reply] inactive

[ask] Per the records of this test, what outcome belongs to C#C[C@]1(O)C=C[C@H]2[C@@H]3CCC4=CC(=O)CC[C@@H]4[C@H]3CC[C@@]21CC ?
[reply] inactive

[ask] Per the records of this test, what outcome belongs to CCCC(C)C1(CC)C(=O)N=C(S)NC1=O (configuration not stated) ?
[reply] inactive

[ask] Per the records of this test, what outcome belongs to CN(C)CCc1c[nH]c2cccc(O)c12 ?
[reply] active

[ask] Per the records of this test, what outcome belongs to CN1C(=O)CN=C(c2ccccc2)c2cc(Cl)ccc21 ?
[reply] inactive

[ask] Per the records of this test, what outcome belongs to COP(=O)(OC)OC=C(Cl)Cl ?
[reply] inactive

[ask] Per the records of this test, what outcome belongs to COc1ccc(OC)c(CC(C)N)c1 (configuration not stated) ?
[reply] inactive

[ask] Per the records of this test, what outcome belongs to CCC(OC(C)=O)C(CC(C)NC)(c1ccccc1)c1ccccc1 (configuration not stated) ?
[reply] active

[ask] Per the records of this test, what outcome belongs to Cc1nnc2n1-c1sc(CCc3ccc(CC(C)C)cc3)cc1C(c1ccccc1Cl)=NC2C (configuration not stated) ?
[reply] active

[ask] Per the records of this test, what outcome belongs to COc1ccc(C(=O)N2CCCC2=O)cc1 ?
[reply] inactive

[ask] Per the records of this test, what outcome belongs to CC[n+]1c(-c2ccccc2)c2cc(N)ccc2c2ccc(N)cc21 ?
[reply] active

* * *

Settings: Ebola virus entry assay, blue channel fluorescence
The source made the active and inactive calls.
readout_type: AC50

Some entries whose results are on file:
compound=C[C@]12CC[C@H](O)CC1=CC[C@@H]1[C@@H]2CC[C@]2(C)C(=O)CC[C@@H]12 observed_value=inactive
compound=COc1ccc(C(Cl)=C(c2ccc(OC)cc2)c2ccc(OC)cc2)cc1 observed_value=inactive
compound=CCOc1ccccc1O[C@H](c1ccccc1)[C@H]1CNCCO1 observed_value="14.1 µM (active)"
compound=COc1ccc(-c2cc(C(F)F)nn2-c2ccc(S(N)(=O)=O)cc2)cc1F observed_value="25.1 µM (active)"
compound=CC[C@H](c1ccc(O)cc1)[C@@H](CC)c1ccc(O)cc1 observed_value="20 µM (active)"

[ask] Please supply the value of reported AC50 for the item CCN(CC)CCOC(=O)C(C)(c1ccccc1)c1ccccc1
[reply] 8.91 µM (active)

[ask] Please supply the value of reported AC50 for the item CC[N+]1(CC)CCC(=C(c2ccccc2)c2ccccc2)C1C (configuration not stated)
[reply] inactive

[ask] Please supply the value of reported AC50 for the item COc1cc([C@H]2Oc3cc([C@H]4Oc5cc(O)cc(O)c5C(=O)[C@@H]4O)ccc3O[C@@H]2CO)ccc1O
[reply] 39.8 µM (active)

[ask] Please supply the value of reported AC50 for the item CN(C)C(=S)SC(=S)N(C)C
[reply] 5.62 µM (active)

* * *

System: CP305
Experiment: qHTS profiling for inhibitors of Plasmodium falciparum proliferation (AID 504749); further: nearly all actives have a fitted effect of over 60% in size; further: potency means the concentration at half of the fitted maximal effect
Conditions: P. falciparum in erythrocytes, SYBR Green DNA, 72 h; series mostly up to 28.7 µM
Records with an inconclusive call do not appear. The source made the active and inactive calls. Calls come from the whole dose curve; as a rule, active = well fitted inhibition curve with a large enough effect; inconclusive = small, poorly fitted or top-dose-only effect; inactive = flat fitted curve, though single readings scatter.
readout_type: Potency

Some entries whose results are on file:
compound=OC(c1ccccc1)(c1ccccc1)C1CCNCC1 observed_value=inactive
compound="N#Cc1nn(-c2c(Cl)cc(C(F)(F)F)cc2Cl)c(N)c1S(=O)C(F)(F)F (stereo unspecified)" observed_value="7.57 µM (active)"
compound=CC(C)[N+](C)(CCC(C(N)=O)(c1ccccc1)c1ccccc1)C(C)C observed_value=inactive
compound=C[N+]1(CCC(C(N)=O)(c2ccccc2)c2ccccc2)CCCCC1 observed_value=inactive
compound=Oc1c(Br)cc(Br)cc1Br observed_value=inactive
compound="O=C(NC(=O)c1c(F)cccc1F)Nc1cc(Cl)c(OC(F)(F)C(F)C(F)(F)F)cc1Cl (stereo unspecified)" observed_value=inactive

[ask] Report value: Potency, system: CP305, compound: CCCCCCCCC(=O)NCc1ccc(O)c(OC)c1
[reply] inactive

[ask] Report value: Potency, system: CP305, compound: COP(=O)(OC)OC=C(Cl)Cl
[reply] inactive

[ask] Report value: Potency, system: CP305, compound: CCS(=O)(=O)C(C)(C)S(=O)(=O)CC
[reply] inactive

[ask] Report value: Potency, system: CP305, compound: COCC(=O)N(c1c(C)cccc1C)C(C)C(=O)OC (stereo unspecified)
[reply] inactive

[ask] Report value: Potency, system: CP305, compound: O=c1n(Cl)c(=O)n(Cl)c(=O)n1Cl
[reply] inactive

[ask] Report value: Potency, system: CP305, compound: NCc1cccnc1
[reply] inactive

[ask] Report value: Potency, system: CP305, compound: Cc1c(Cl)c(=O)oc2cc(OP(=O)(OCCCl)OCCCl)ccc12
[reply] 6.75 µM (active)

[ask] Report value: Potency, system: CP305, compound: Clc1ccc(CO/N=C(\Cn2ccnc2)c2ccc(Cl)cc2Cl)c(Cl)c1
[reply] 13.5 µM (active)
